Target: human FXa (Homo sapiens)
Construct: purchased Enzyme Research Laboratories
Sequence (P00742 235-488 limits assumed): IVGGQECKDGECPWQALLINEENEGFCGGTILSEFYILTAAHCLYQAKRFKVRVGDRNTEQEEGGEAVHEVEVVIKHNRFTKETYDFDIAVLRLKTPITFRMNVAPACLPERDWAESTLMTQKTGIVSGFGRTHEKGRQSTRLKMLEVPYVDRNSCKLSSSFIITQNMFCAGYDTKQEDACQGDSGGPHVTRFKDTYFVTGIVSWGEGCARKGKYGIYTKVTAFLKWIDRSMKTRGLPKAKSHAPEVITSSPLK
Sequence (P00742 41-179 partner limits assumed): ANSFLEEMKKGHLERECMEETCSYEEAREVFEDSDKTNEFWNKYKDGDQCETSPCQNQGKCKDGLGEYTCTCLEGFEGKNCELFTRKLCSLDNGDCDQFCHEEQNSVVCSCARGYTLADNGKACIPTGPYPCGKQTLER
Assay: Inhibitory activity against purified human FXa, chromogenic substrate S-2765
Format: biochemical
Details: purified human FXa 2.6 nM, S-2765 300 uM, pH 7.8, 37° C.; Cheng-Prusoff, Km 125 μM; read-out: Ki (nM), inhibition constant against human FXa
Consider the following compounds; for each one, report its Ki.
One number for each entry, in nM.

>  <COMPOUND>
CN1C=NCCN1c1ccc(N2C[C@H](CNC(=O)c3ccc(Cl)s3)OC2=O)cc1

>  <Ki (nM)>
2.86

$$$$
>  <COMPOUND>
CCN1OCCN=C1c1ccc(N2C[C@H](CNC(=O)c3ccc(Cl)s3)OC2=O)cc1

>  <Ki (nM)>
3.62

$$$$
>  <COMPOUND>
CCC1=NN(c2ccc(N3C[C@H](CNC(=O)c4ccc(Cl)s4)OC3=O)cc2)CCN1

>  <Ki (nM)>
18.9

$$$$

For every item in the list below, what is its measured Ki?
1. O=C(NC[C@H]1CN(c2ccc(N3CCON=C3C3CC3)cc2)C(=O)O1)c1ccc(Cl)s1
2. CC1=NN(c2ccc(N3C[C@H](CNC(=O)c4ccc(Cl)s4)OC3=O)cc2)CCN1C
3. CN1C=NN(c2ccc(N3C[C@H](CNC(=O)c4ccc(Cl)s4)OC3=O)cc2)CC1
4. O=CN1CCN(c2ccc(N3C[C@H](CNC(=O)c4ccc(Cl)s4)OC3=O)cc2)C=N1

1: 101; 2: 29.3; 3: 120; 4: 132

Lookup result for O=C(NC[C@H]1CN(c2ccc(N3C=NOCC3)cc2)C(=O)O1)c1ccc(Cl)s1 ; measured Ki: 84

* * *

Consider the following molecules; for each one, report its Inhibition of thrombus formation (%).
System: thrombus formation in rat AV-shunt
Experiment: Antithrombotic effect in arteriovenous shunt (AV-shunt) model in rats
Assay type: in vivo
Settings: oral 60 min before shunt, values without asterisk (urethane anesthetic), dose not given
Give bare numbers, in %.

>  <MOLECULE>
CC1=NOCCN1c1ccc(N2C[C@H](CNC(=O)c3ccc(Cl)s3)OC2=O)cc1 [Compound 116]

>  <Inhibition of thrombus formation (%)>
74

$$$$
>  <MOLECULE>
O=C(NC[C@H]1CN(c2ccc(C3=NCCN4C(=O)CCN34)cc2)C(=O)O1)c1ccc(Cl)s1 [Compound 108]

>  <Inhibition of thrombus formation (%)>
52

$$$$
>  <MOLECULE>
O=CN1CCN(c2ccc(N3C[C@H](CNC(=O)c4ccc(Cl)s4)OC3=O)cc2)C=N1 [Compound 118]

>  <Inhibition of thrombus formation (%)>
74

$$$$

Entry CC1=NN(C)CCN1c1ccc(N2C[C@H](CNC(=O)c3ccc(Cl)s3)OC2=O)cc1 [Compound 121] ; assay system thrombus formation in rat AV-shunt; Inhibition of thrombus formation (%) recorded at 51

* * *

Consider the following compounds; for each one, report its 2xPT (uM) Coagulometer.
Tested on: Citrated human and rat plasma
Assay: Prothrombin time (PT), method using coagulometer
Format: biochemical
Conditions: concentration required to double the plasma clotting times, plasma species not given
Give bare numbers, in µM.

For every item in the list below, what is its measured 2xPT (uM) Coagulometer?
1. CC1=NN(c2ccc(N3C[C@H](CNC(=O)c4ccc(Cl)s4)OC3=O)cc2)CCN1C
2. CCN1CCON=C1c1ccc(N2C[C@H](CNC(=O)c3ccc(Cl)s3)OC2=O)cc1
3. CC1=NN(C)CCN1c1ccc(N2C[C@H](CNC(=O)c3ccc(Cl)s3)OC2=O)cc1
4. O=C(NC[C@H]1CN(c2ccc(N3CCNC=N3)cc2)C(=O)O1)c1ccc(Cl)s1

1. 0.62
2. 1.76
3. 2.90
4. 0.44
